Values were extracted from ChEMBL document CHEMBL1151134.

The reader will find reported cytotoxicity at 25 µM values listed item by item below.
# Assay Overview: Cytotoxicity against human H9 cells at 25 uM
# Format: cell-based
# Measurement Setup: read-out: INH

[[record]]
compound = "O=C(O[C@@H]1C[C@](OC(=O)c2cc(O)c(O)c(O)c2)(C(=O)O)C[C@@H](OC(=O)c2cc(O)c(O)c(O)c2)[C@H]1OC(=O)c1cc(O)c(O)c(O)c1)c1cc(O)c(O)c(O)c1"
readout_kind = "cytotoxicity at 25 µM"
observed_value = "25%"

[[record]]
compound = "O=C(O[C@@H]1C[C@](O)(C(=O)O)C[C@@H](OC(=O)c2cc(O)c(O)c(O)c2)[C@H]1OC(=O)c1cc(O)c(O)c(O)c1)c1cc(O)c(O)c(O)c1"
readout_kind = "cytotoxicity at 25 µM"
observed_value = "14%"

[[record]]
compound = "O=C(Oc1c(O)cc(C(=O)O[C@@H]2C[C@](O)(C(=O)O)C[C@@H](OC(=O)c3cc(O)c(O)c(O)c3)[C@H]2OC(=O)c2cc(O)c(O)c(O)c2)cc1O)c1cc(O)c(O)c(O)c1"
readout_kind = "cytotoxicity at 25 µM"
observed_value = "25%"


Exam item: I would be grateful if you could share the reported cytotoxicity at 25 µM for O=C(Oc1c(O)cc(C(=O)O[C@@H]2C[C@@](O)(C(=O)O)C[C@@H](OC(=O)c3cc(O)c(O)c(O)c3)[C@@H]2OC(=O)c2cc(O)c(O)c(O)c2)cc1O)c1cc(O)c(O)c(O)c1 .
Marked response: 0%

Exam item: I am curious: what cytotoxicity at 25 µM value has been reported for O=C(Oc1c(O)cc(C(=O)O[C@H]2[C@H](OC(=O)c3cc(O)c(O)c(O)c3)C[C@](O)(C(=O)O)C[C@H]2OC(=O)c2cc(O)c(O)c(O)c2)cc1O)c1cc(O)c(O)c(O)c1 ?
Marked response: 14%
